Cited source: the supplement of paper PMC6757056

B1: library; a variant is named by its letters at N, in order (parent)
chain: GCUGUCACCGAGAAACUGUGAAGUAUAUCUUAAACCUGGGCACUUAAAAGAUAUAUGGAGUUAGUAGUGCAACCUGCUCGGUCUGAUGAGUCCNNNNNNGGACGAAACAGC

Variants of: B1
run description: FACS-Seq fitted mean relative fluorescence mCherry/BFP without ligand (log10 relative fluorescence); HEK293T; ligand: cyclic di-GMP (c-di-GMP-II aptamer); higher = higher reporter protein expression
test settings: ligand present: no
Rule: FACS-Seq fitted mean (log10) under -0.5 gives Not satisfied, otherwise Satisfied.

INPUT: Textbook exercise: given the entry "GCUGUCACCGAGAAACUGUGAAGUAUAUCUUAAACCUGGGCACUUAAAAGAUAUAUGGAGUUAGUAGUGCAACCUGCUCGGUCUGAUGAGUCCCCUUAAGGACGAAACAGC" , state whether its FACS-Seq fitted mean (log10) is greater than or equal to -0.5.
OUTPUT: Satisfied

INPUT: Textbook exercise: given the entry "GCUGUCACCGAGAAACUGUGAAGUAUAUCUUAAACCUGGGCACUUAAAAGAUAUAUGGAGUUAGUAGUGCAACCUGCUCGGUCUGAUGAGUCCGACUUUGGACGAAACAGC" , state whether its FACS-Seq fitted mean (log10) is greater than or equal to -0.5.
OUTPUT: Satisfied

INPUT: Textbook exercise: given the entry "GCUGUCACCGAGAAACUGUGAAGUAUAUCUUAAACCUGGGCACUUAAAAGAUAUAUGGAGUUAGUAGUGCAACCUGCUCGGUCUGAUGAGUCCAUACAUGGACGAAACAGC" , state whether its FACS-Seq fitted mean (log10) is greater than or equal to -0.5.
OUTPUT: Satisfied

INPUT: Textbook exercise: given the entry "GCUGUCACCGAGAAACUGUGAAGUAUAUCUUAAACCUGGGCACUUAAAAGAUAUAUGGAGUUAGUAGUGCAACCUGCUCGGUCUGAUGAGUCCGUGCAUGGACGAAACAGC" , state whether its FACS-Seq fitted mean (log10) is greater than or equal to -0.5.
OUTPUT: Not satisfied

***
INPUT: Textbook exercise: given the entry "GCUGUCACCGAGAAACUGUGAAGUAUAUCUUAAACCUGGGCACUUAAAAGAUAUAUGGAGUUAGUAGUGCAACCUGCUCGGUCUGAUGAGUCCCCUGUAGGACGAAACAGC" , state whether its FACS-Seq fitted mean (log10) is greater than or equal to -0.5.
OUTPUT: Satisfied

INPUT: Textbook exercise: given the entry "GCUGUCACCGAGAAACUGUGAAGUAUAUCUUAAACCUGGGCACUUAAAAGAUAUAUGGAGUUAGUAGUGCAACCUGCUCGGUCUGAUGAGUCCCAGUUCGGACGAAACAGC" , state whether its FACS-Seq fitted mean (log10) is greater than or equal to -0.5.
OUTPUT: Satisfied
